- STUDY_TARGET: T1, K48-linked diubiquitin (human, UniProt P0CG48 1-76, isopeptide bond between Lys48 of one ubiquitin and the C-terminal Gly of the other)
- T1 construct: Boston Biochem
- ASSAY_DETAILS: SPR Biacore, antigen immobilized
QUANTITY: pKd
pKd field: float, defined as -log10 of concentration (mol/L).

Consider the worked cases shown below.
INSERT INTO assay_data (binder, quantity, result) VALUES
  ('Fab apu2.05 (Fab, V domains shown) VH: EVQLVESGGGLVQPGGSLRLSCAASGFNISYSSMHWVRQAPGKGLEWVASIYSYYSYTSYADSVKGRFTISADTSKNTAYLQMNSLRAEDTAVYYCARSYSYRMAFDYWGQGTLVTVSS VL: DIQMTQSPSSLSASVGDRVTITCRASQSVSSAVAWYQQKPGKAPKLLIYSASSLYSGVPSRFSGSRSGTDFTLTISSLQPEDFATYYCQQSSYSSLITFGQGTKVEIK', 'pKd', 8.30),
  ('Fab apu2.10 (Fab, V domains shown) VH: EVQLVESGGGLVQPGGSLRLSCAASGFNISYSSMHWVRQAPGKGLEWVASIYSYYSYTSYADSVKGRFTISADTSKNTAYLQMNSLRAEDTAVYYCARSYSYFLAMDYWGQGTLVTVSS VL: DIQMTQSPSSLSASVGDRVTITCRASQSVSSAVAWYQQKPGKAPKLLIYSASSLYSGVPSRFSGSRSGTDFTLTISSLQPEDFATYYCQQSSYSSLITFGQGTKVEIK', 'pKd', 8.92);

Now, please, on to the next binder.
Qu. Look at this binder and give its reported pKd. Fab apu2.01 (Fab, V domains shown) VH: EVQLVESGGGLVQPGGSLRLSCAASGFNISYSSMHWVRQAPGKGLEWVASIYSYYSYTSYADSVKGRFTISADTSKNTAYLQMNSLRAEDTAVYYCARSYSYSEALDYWGQGTLVTVSS VL: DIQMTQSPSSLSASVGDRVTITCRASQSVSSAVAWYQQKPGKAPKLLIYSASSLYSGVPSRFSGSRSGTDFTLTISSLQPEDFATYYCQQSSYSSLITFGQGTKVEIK
Ans. 7.63
